Target: T1, flag-tagged soluble TL3 (amino acids 105-251 of SEQ ID NO:234) (Homo sapiens (Human), UniProt O75888 105-250)
T1 construct: Heterologous flag-tagged control protein, immobilized in the ELISA; also called flagged tagged TL-3; not shown: Flag tag
T1 sequence: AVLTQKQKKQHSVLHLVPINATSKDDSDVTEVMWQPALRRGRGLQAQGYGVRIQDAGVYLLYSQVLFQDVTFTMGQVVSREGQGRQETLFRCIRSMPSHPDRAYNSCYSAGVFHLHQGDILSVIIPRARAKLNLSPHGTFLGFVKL
Experiment: phage ELISA on immobilized flag-tagged soluble TL3
observed-property: binding result

GMBC639 (scFv) scFv: GVQLVQSGAEVKTPGASVKVSCKASGYTFTNHYMHWVRQAPGQGIEWVGVINPSGDGSSYAQTFQGRVTMTRDTSTSTVYMELRSLRSDDTAVYYCARDLFYDFWSDYYRNDQYYYMDVWGKGTLVTVSSGGGGSGGGGSGGGGSSELTQDPAVSVALGQAVRITCQGDSLRSYYASWYQQKPGQAPVLVIYGKNNRPSGIPDRFSGSSSGNTASLTITGAQAEDEADYYCNSRDSSGNHVVFGGGTKLTVLG
no binding
GMBC664 (scFv) scFv: EVQLVETGGALVKPGGSLRLSCAASGFTFSDAWMNWVRQAPGKGLEWVGRIKSKGSGGTIDYAAPVKDRFTISRDDSKNTLYLQMNSLKTEDTALYYCTWDWDFYYGMNVWSRGTMVTVSSGGGGSGGGGSGGGGSQSVLTQPASVSGSPGQSITISCTGTSSDVGGYNYVSWYQQHPGKAPKLMIYEGSKRPSGVSNRFSGSKSGNTASLTISGLQAEDEADYYCSSYTTRSTRVFGGGTKLTVLG
no binding
GMBC654 (scFv) scFv: EVQLVETGGGLVEPGGSLRLSCAASGFTFSDAWMNWVRQAPGKGLEWVGRIKSKRSGGTIDYAAPVKDRFTISRDDSKNTLYLQMNSLKIEDTALYYCTWDWDFYYGMNVWGKGTTVTVSSGGGGSGGGGSGGGGSQSVLTQPASVSGSPGQSITISCTGTSSDVGGYNYVSWYQQHPGKAPKLMIYEGSKRPSGVSNRFSGSKSGNTASLTISGLQAEDEADYYCSSYTTRSTRVFGGGTKLTVLG
no binding
